Source: PubChem BioAssay (NCI)

Test system: MDA-MB-231 breast
Test: NCI tumour cell line growth inhibition, 48 h
Entries and their TGI values follow.
MEASUREMENT_LABEL: TGI

>  <COMPOUND>
COC(=O)c1cc2c3cc(Cl)ccc3[nH]c2c2ncccc12

>  <MEASUREMENT_LABEL>
TGI

>  <REPORTED_RESULT>
> 100 µM

$$$$
>  <COMPOUND>
CC(C)(CO)CNc1nc(N)nc(Cl)c1C=O

>  <MEASUREMENT_LABEL>
TGI

>  <REPORTED_RESULT>
> 100 µM

$$$$
>  <COMPOUND>
CC1CCC2C(C(=O)O[C@H]3C4C=CO[C@@H](OC5OC(CO)C(O)C(O)C5O)C4[C@@]4(CO)O[C@@H]34)=CO[C@@H](OC3OC(CO)C(O)C(O)C3O)C12 (stereo partly specified)

>  <MEASUREMENT_LABEL>
TGI

>  <REPORTED_RESULT>
> 10 µM

$$$$
>  <COMPOUND>
COc1cc(C)cc2c1C(=O)C(NC(C)=O)=CC2=O

>  <MEASUREMENT_LABEL>
TGI

>  <REPORTED_RESULT>
> 100 µM

$$$$
>  <COMPOUND>
Nc1nc2cc(COc3ccc(C(=O)O)cc3)ccc2nc1-c1ccccc1

>  <MEASUREMENT_LABEL>
TGI

>  <REPORTED_RESULT>
> 10 µM

$$$$
>  <COMPOUND>
CCc1cccc(CC)c1Nc1nc(-c2ccccc2-c2ccccc2)cs1

>  <MEASUREMENT_LABEL>
TGI

>  <REPORTED_RESULT>
> 100 µM

$$$$

====

Tested on: ACHN renal
Assay: NCI tumour cell line growth inhibition, 48 h
Entries and their TGI values follow.
MEASUREMENT_LABEL: TGI

>  <COMPOUND>
ON[C@@H]1C=C[C@H](n2cnc3c(NC4CC4)ncnc32)C1

>  <MEASUREMENT_LABEL>
TGI

>  <REPORTED_RESULT>
> 100 µM

$$$$
>  <COMPOUND>
CC1(C)COC(c2cccc(C(=O)c3ccccc3)c2)=N1

>  <MEASUREMENT_LABEL>
TGI

>  <REPORTED_RESULT>
> 100 µM

$$$$
>  <COMPOUND>
CCOC(=O)CCC(NC(=O)c1ccc(Oc2nc3cc(N)cc(N)c3nc2-c2ccccc2)cc1)C(=O)OCC (stereo not drawn)

>  <MEASUREMENT_LABEL>
TGI

>  <REPORTED_RESULT>
> 100 µM

$$$$
>  <COMPOUND>
COc1ccc(/C=C2\CC3C4CC=C5C[C@@H](N6CCCC6)CC[C@]5(C)C4CC[C@]3(C)[C@H]2O)cc1OC (stereo partly drawn)

>  <MEASUREMENT_LABEL>
TGI

>  <REPORTED_RESULT>
16 µM

$$$$
>  <COMPOUND>
C[C@H]1CCC/C=C/[C@@H]2C[C@H](O)C[C@H]2[C@H](O)C(O)C(O)C(=O)O1 (stereo partly drawn)

>  <MEASUREMENT_LABEL>
TGI

>  <REPORTED_RESULT>
20.9 µM

$$$$
>  <COMPOUND>
NC(N)=N/N=C/c1c(Cl)nc2n1CCS2

>  <MEASUREMENT_LABEL>
TGI

>  <REPORTED_RESULT>
> 100 µM

$$$$
>  <COMPOUND>
COc1cc(C)cc2c1C(=O)C(NC(C)=O)=CC2=O

>  <MEASUREMENT_LABEL>
TGI

>  <REPORTED_RESULT>
> 100 µM

$$$$
>  <COMPOUND>
CC1=CC(=O)c2ccc3c4ccccc4n(C)c3c2C1=O

>  <MEASUREMENT_LABEL>
TGI

>  <REPORTED_RESULT>
> 100 µM

$$$$
>  <COMPOUND>
COc1ccc(-c2c(C#N)c(N)nc(Sc3ccccc3N)c2C#N)cc1

>  <MEASUREMENT_LABEL>
TGI

>  <REPORTED_RESULT>
51.4 µM

$$$$
>  <COMPOUND>
CN1CC[C@@]2(c3cccc(O)c3)CC(=O)/C(=C/c3ccc(Cl)c(Cl)c3)[C@H]1C2

>  <MEASUREMENT_LABEL>
TGI

>  <REPORTED_RESULT>
3.38 µM

$$$$
>  <COMPOUND>
COc1cccc(C2=C(c3cn(C)c4c(C)cccc34)C(=O)NC2=O)c1

>  <MEASUREMENT_LABEL>
TGI

>  <REPORTED_RESULT>
> 25 µM

$$$$
>  <COMPOUND>
Cc1nc2ccccc2c(/C=C/c2ccc(F)cc2)c1C(=O)/C=C/c1ccccc1

>  <MEASUREMENT_LABEL>
TGI

>  <REPORTED_RESULT>
4.65 µM

$$$$
>  <COMPOUND>
COc1cc(/C=C/C(=O)c2cccc(-n3cc(-c4ccccc4)[nH]c3=O)c2)ccc1O

>  <MEASUREMENT_LABEL>
TGI

>  <REPORTED_RESULT>
16.3 µM

$$$$
